B1: glmS ribozyme (parent)
chain: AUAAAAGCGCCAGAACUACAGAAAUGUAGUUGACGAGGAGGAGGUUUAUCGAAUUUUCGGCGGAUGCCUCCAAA

Variants of: B1
Experiment: self-cleavage kobs at 2500 uM GlcN6P; higher = faster cleavage; RNA array
Details: with glucosamine-6-phosphate
This sample holds only a part of the variants without activity.
Measured quantity: self-cleavage kobs at 2500 uM GlcN6P

Mutation code: G43A C67G
Reported result: 0.000994 s⁻¹
--
Mutation code: G13A G63U
Reported result: < 1e-05 s⁻¹
--
Mutation code: U65A C70U
Reported result: 0.00273 s⁻¹

Record self-cleavage kobs at 2500 uM GlcN6P per entry; entries follow.
1. U47G C58A G59U C70G
2. G9U G40A G60U
3. A12C U47A
4. A6U U56C C68G
5. G40C G66A
6. C16A A36U A42G A48G G51U U54G
7. A42U U69C C70A
8. A12C U45C

0.000334 s⁻¹
< 1e-05 s⁻¹
0.00529 s⁻¹
< 1e-05 s⁻¹
0.00108 s⁻¹
< 1e-05 s⁻¹
0.000308 s⁻¹
0.000907 s⁻¹
